- assayed-system: T1, synthetic peptide hFn14 sub-domain 3 (human, cysteine pairing not given here)
- T1 construct: also called sub-domain 3 peptide
- T1 peptide: ASCRARPHSDFCLGK(Biotin)
- assay-protocol: ELISA on biotinylated sub-domain 3 peptide, mAb at 0.2 ug/ml
Ends that are not written are not given here. * marks the point of attachment. Biotin = O=C1N[C@H]2[C@H](CS[C@H]2CCCCC(=O)*)N1
measured-property: % decrease in binding compared with CRCBT-06-005
Give me the value, and tack the unit on after it.

Before answering, review these 3 worked examples.
[[record]]
binder = "CRCBT-06-007 (antibody, IgG2b, V domains shown) VH: QVKLEESGGVLVQPGGSMKLSCIASGFSFSKYWMNWVRQSPEKGLEWVAEIRVKSNNYATHYAESVKGRFIISRDDSKSSVYLQMNNLRAEDTGIYYCTKSYADYFDYWGQGTTLTVSS VL: DIVMTQSTASLAVSLGQRATISCRASQSVSTSSYSYMHWYQQKPGQPPKVLIKYASNLESGVPARFSGSGSGTDFTLNIHPVEEEDAATYYCQHSWEIPYTFGGGTKLEIKR"
experimental_result = "73%"

[[record]]
binder = "CRCBT-06-002 (antibody, IgG1, V domains shown) VH: EVKLQQSGGGLVQPGGSMKLSCVASGFTFSYYWMNWVRQSPEQGLEWIAEIRLQSNDYPTHYAESVKGRFTISRDDSKNSVYLQMNNLRPEDTGIYYCACRYADYFDHWGQGTTLTVSS VL: DTVLTQSPASLVVSLGQRATISCRASQSVSTSDYSYIHWYQQKPGQPPKFLIKYASNRDSGVPARFSGSGSGTDFTLNIHPVEEDDTAIYYCQHSWEIPPTFGAGTKLELQR"
experimental_result = "43%"

[[record]]
binder = "CRCBT-06-001 (antibody, IgG2b, V domains shown) VH: QVQLQQSGGGLVQPGGSMKLSCIASGFTFSSYWMSWVRQSPEKGLEWVAEIRSKSDNYATHYAESVKGKFTISRDDSKSRFFLQMNNLRAEDTGIYYCSSTYADYFHYWGQGTDLTVSS VL: DIVMTQTPASLAVSLGQRATISCRASQSVSTSTYSYMHWYQQKPGQPPKLLIKYASSLESGVPARFSGSGSGTDFTLNIHPVEEDDTATYYCQHSWEIPYTFGGGTKLEIKR"
experimental_result = "60%"


Next:
**Query** Given the binder CRCBT-06-006 (antibody, IgG2a, V domains shown) VH: QVQLQESGGGLVQPGGSMKLSCVASGFTFSYYWMNWVRQSPEQGLEWIAEIRLQSNDYPTHYAESVKGRFTISRDDSKNSVYLQMNNLRPEDTGIYYCACRYADYFDHWGQGTTLTVSS VL: DIVITQSPASLTVSLGQRATISCRASQSVSTSTYSYMHWYQQTPGQPPTVLIKYASSLESGVPTRFSGSGSGTDFTLNIHPVEEEDTATYYCQHSWEIPYTFGGGTKLEIKR , what is its reported % decrease in binding compared with CRCBT-06-005?
**Result** 73%
